- System: Staphylococcus aureus
- ASSAY REMARKS: Antibacterial activity against Staphylococcus aureus ATCC 25904 incubated for 16 to 24 hrs by broth microdilution method
- Type: functional
- MEASUREMENT CONTEXT: time 16-24 hrs
Quick rule for you: MIC under 0.5 µg/mL gets YES, anything else gets NO.

MOLECULE	TARGET OR TEST SYSTEM	QUALITATIVE LABEL
CCn1c(=O)c(C(=O)Nc2nnc(-c3cccc(C)n3)s2)c(O)c2ccccc21	Staphylococcus aureus	YES
CCn1c(=O)c(C(=O)Nc2nnc(-c3ccc(C)cn3)s2)c(O)c2ccccc21	Staphylococcus aureus	YES
CCn1c(=O)c(C(=O)Nc2nnc(-c3ccc(F)cn3)s2)c(O)c2ccccc21	Staphylococcus aureus	YES
CN(C)c1cc(NC(=O)CNC(C)(C)C)c(O)c2c1C[C@H]1C[C@H]3[C@H](N(C)C)C(O)=C(C(N)=O)C(=O)[C@@]3(O)C(O)=C1C2=O [TIGECYCLINE]	Staphylococcus aureus	NO
CCn1c(=O)c(C(=O)Nc2nnc(-c3ncccc3F)s2)c(O)c2ccccc21	Staphylococcus aureus	YES
CCn1c(=O)c(C(=O)Nc2nnc(-c3ccc(C(F)(F)F)cn3)s2)c(O)c2ccccc21	Staphylococcus aureus	NO
CC1(C)S[C@H]([C@H](NC(=O)Cc2ccccc2)C(=O)NCc2ccccc2)N[C@H]1C(=O)N[C@H](Cc1ccccc1)[C@H](O)CC(=O)NCc1nc2ccccc2[nH]1	Staphylococcus aureus	NO
CCn1c(=O)c(C(=O)Nc2nnc(-c3ncccc3C)s2)c(O)c2ccccc21	Staphylococcus aureus	NO
CCn1c(=O)c(C(=O)Nc2nnc(-c3ccc(Br)cn3)s2)c(O)c2ccccc21	Staphylococcus aureus	YES
CN[C@H](CC(C)C)C(=O)N[C@H]1C(=O)N[C@@H](CC(N)=O)C(=O)N[C@H]2C(=O)N[C@H]3C(=O)N[C@H](C(=O)N[C@H](C(=O)O)c4cc(O)cc(O)c4-c4cc3ccc4O)[C@H](O)c3ccc(c(Cl)c3)Oc3cc2cc(c3O[C@@H]2O[C@H](CO)[C@@H](O)[C@H](O)[C@H]2O[C@H]2C[C@](C)(N)[C@H](O)[C@H](C)O2)Oc2ccc(cc2Cl)[C@H]1O [VANCOMYCIN]	Staphylococcus aureus	NO
CNC(C)[C@@H]1CC[C@@H](N)[C@@H](O[C@H]2[C@H](O)[C@@H](O[C@H]3OC[C@](C)(O)[C@H](NC)[C@H]3O)[C@H](N)C[C@@H]2N)O1.CN[C@@H]1[C@@H](O)[C@@H](O[C@@H]2[C@@H](O)[C@H](O[C@H]3O[C@H](C(C)N)CC[C@H]3N)[C@@H](N)C[C@H]2N)OC[C@]1(C)O.CN[C@@H]1[C@@H](O)[C@@H](O[C@@H]2[C@@H](O)[C@H](O[C@H]3O[C@H](CN)CC[C@H]3N)[C@@H](N)C[C@H]2N)OC[C@]1(C)O (some centres not stated)	Staphylococcus aureus	NO
CCn1c(=O)c(C(=O)Nc2nnc(-c3cc(C)ccn3)s2)c(O)c2ccccc21	Staphylococcus aureus	YES
